assay: Metabolic stability in pooled SD rat liver microsomes; assay type: in vitro ADME; details: SD, rat, pooled rat liver microsomes, pH 7.4
What half-life at 1 μM was measured for each of the following?

compound | half-life at 1 μM
CC(C)c1ccc2oc3nc(N)c(C(=O)O)cc3c(=O)c2c1 | > 1 h

Please examine the following record next.
// sample [2H]CC([2H])(C)c1ccc2oc3nc(N)c(C(=O)O)cc3c(=O)c2c1 (centres unmarked) , its half-life at 1 μM was > 1 h
